Cited source: patent US20250051344A1

// reported DC50 for each item listed
Target: SMARCA4 (Homo sapiens, UniProt P51532)
Construct: endogenous in cells
Sequence (P51532 whole entry, species assumed): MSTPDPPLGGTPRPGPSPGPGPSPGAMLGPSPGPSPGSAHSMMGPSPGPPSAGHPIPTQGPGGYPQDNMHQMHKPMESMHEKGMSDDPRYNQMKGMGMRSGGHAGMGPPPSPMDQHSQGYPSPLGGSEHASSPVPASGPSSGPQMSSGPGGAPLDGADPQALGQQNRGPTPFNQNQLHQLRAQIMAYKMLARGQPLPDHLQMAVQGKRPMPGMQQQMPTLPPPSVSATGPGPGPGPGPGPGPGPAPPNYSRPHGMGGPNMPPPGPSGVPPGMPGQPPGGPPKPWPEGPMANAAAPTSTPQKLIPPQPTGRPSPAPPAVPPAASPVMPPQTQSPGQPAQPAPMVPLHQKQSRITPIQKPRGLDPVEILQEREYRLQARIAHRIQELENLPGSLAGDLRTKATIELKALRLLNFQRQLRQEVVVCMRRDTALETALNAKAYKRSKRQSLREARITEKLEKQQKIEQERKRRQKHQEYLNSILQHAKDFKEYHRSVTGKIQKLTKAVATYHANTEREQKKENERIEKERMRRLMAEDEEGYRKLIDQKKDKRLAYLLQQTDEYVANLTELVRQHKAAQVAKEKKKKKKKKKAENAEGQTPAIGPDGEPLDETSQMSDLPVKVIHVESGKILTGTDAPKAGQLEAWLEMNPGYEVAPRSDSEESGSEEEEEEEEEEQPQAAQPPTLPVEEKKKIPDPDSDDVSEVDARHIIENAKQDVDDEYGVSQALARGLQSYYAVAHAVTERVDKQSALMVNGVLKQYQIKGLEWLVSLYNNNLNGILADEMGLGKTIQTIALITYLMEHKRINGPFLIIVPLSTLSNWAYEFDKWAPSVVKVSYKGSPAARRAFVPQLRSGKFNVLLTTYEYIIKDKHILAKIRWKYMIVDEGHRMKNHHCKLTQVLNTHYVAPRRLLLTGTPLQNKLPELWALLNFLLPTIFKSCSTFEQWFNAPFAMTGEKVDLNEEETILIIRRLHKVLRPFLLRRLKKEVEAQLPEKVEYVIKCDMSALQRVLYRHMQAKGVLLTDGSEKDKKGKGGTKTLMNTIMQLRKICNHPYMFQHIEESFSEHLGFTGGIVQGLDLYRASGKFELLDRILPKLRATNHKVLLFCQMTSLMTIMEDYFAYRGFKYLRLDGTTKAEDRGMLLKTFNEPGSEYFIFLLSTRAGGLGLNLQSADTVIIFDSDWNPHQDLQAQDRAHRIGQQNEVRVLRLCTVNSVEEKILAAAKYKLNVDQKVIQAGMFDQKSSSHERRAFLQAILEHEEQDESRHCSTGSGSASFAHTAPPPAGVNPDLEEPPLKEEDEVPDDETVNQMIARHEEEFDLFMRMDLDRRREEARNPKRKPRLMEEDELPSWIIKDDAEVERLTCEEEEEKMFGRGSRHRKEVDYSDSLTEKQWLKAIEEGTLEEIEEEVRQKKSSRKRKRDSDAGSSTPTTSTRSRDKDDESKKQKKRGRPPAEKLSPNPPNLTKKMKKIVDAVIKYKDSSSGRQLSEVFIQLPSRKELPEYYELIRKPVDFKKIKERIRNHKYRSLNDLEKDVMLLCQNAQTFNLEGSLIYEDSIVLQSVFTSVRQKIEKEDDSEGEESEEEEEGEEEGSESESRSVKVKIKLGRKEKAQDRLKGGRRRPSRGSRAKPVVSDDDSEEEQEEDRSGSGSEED
Test: Cellular degradation assay, SMARCA4 (Table 1)
Assay type: cell-based
Form entry: value (nM) — number only.

Illustrative cases are given below, each with its answer.
In [3]: df
Out[3]:
                                   compound  reading_unit  recorded_measurement
0  CN(C(=O)C1(Oc2ccn(C)n2)CCN(c2cnnc(-c3ccccc3O)c2)CC1)C1CCN(CC2CCN(c3ccc([C@H]4CCC(=O)NC4=O)cc3)CC2)CC1            nM                  36.9
1  Cc1cnn(C2(C(=O)N(C)C3CCN(CC4CCN(c5ccc([C@H]6CCC(=O)NC6=O)cc5)CC4)CC3)CCN(c3cnnc(-c4ccccc4O)c3)CC2)c1            nM                  22.3

Next, consider the following compound.
Problem: What measured DC50 goes with CC(C)c1cc(C2(C(=O)N3CC4(CN(CC5CCN(c6ccc(C7CCC(=O)NC7=O)cc6)CC5)C4)C3)CCN(c3cnnc(-c4ccccc4O)c3)CC2)no1 (racemic) ?
Solution: 92.5
